For each of the molecules below, state its IC50.
target: Itk (Homo sapiens, UniProt Q08881); construct: Kinases are expressed as either kinase domains or full length constructs; made in house; test: Kinase inhibition assay (33P transfer), Itk; type: biochemical; conditions: read-out: Itk-1
Sequence (Q08881 whole entry, species assumed, the tested form may be a part): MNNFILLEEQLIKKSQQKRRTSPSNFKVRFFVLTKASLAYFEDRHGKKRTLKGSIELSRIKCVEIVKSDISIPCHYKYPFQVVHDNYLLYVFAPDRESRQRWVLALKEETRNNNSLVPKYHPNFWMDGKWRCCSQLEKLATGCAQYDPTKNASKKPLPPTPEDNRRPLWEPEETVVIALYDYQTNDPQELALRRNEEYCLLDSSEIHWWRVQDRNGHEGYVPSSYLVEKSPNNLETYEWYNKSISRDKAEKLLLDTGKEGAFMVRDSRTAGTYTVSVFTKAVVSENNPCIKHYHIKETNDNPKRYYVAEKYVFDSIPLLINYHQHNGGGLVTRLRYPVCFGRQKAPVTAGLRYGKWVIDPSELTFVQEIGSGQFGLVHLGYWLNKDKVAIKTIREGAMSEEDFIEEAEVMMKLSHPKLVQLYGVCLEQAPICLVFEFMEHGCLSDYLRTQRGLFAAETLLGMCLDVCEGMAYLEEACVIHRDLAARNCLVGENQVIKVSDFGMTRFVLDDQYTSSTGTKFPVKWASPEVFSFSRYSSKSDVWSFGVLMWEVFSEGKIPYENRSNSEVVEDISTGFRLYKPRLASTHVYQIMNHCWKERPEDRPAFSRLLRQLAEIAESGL

What reported IC50 corresponds to `COc1cc(Nc2ncnc(Nc3ccc(NC(=O)O[C@@H]4CCOC4)cc3)n2)cc(OC)c1OC` on Itk (Homo sapiens, UniProt Q08881)?
4.97 to 7.25 µM

IC50 of `Cc1cccc(Nc2ncnc(Nc3cc(-c4ccccc4)n[nH]3)n2)c1` on Itk (Homo sapiens, UniProt Q08881)?
1.16 to 6.99 µM

# query: IC50 | item `COc1cc(Nc2ncnc(-n3c(Nc4ccccc4C(C)C)nc4ccccc43)n2)cc(OC)c1OC` | system: Itk (Homo sapiens, UniProt Q08881)
> 8.8 µM

Missing value: IC50, Itk (Homo sapiens, UniProt Q08881), entry `Nc1nc2ccccc2n1-c1ncnc(Nc2ccccn2)n1` . Fill in?
1.31 to 7.89 µM

# returns recorded IC50 (system: Itk (Homo sapiens, UniProt Q08881)) for CCOC(=O)C(Nc1nc2ccccc2n1-c1ncnc(Nc2cc(OC)c(OC)c(OC)c2)n1)c1ccccc1 (centres unmarked)
> 8.1 µM

Notebook: pull reported IC50 for Itk (Homo sapiens, UniProt Q08881), entry `CN(c1cccc(Cl)c1)c1ncnc(Nc2cc(-c3ccco3)[nH]n2)n1`
1.09 to 6.53 µM

Item: `O=c1[nH]c2ccccc2n1-c1ncnc(Nc2ccc3ncccc3c2)n1` Test system: Itk (Homo sapiens, UniProt Q08881) Read-out: IC50 Value: ?
9.85 to 12.7 µM

Any idea what IC50 came out for `Brc1cccc(Nc2ncnc(Nc3ccc4c(cnn4Cc4ccccc4)c3)n2)c1` on Itk (Homo sapiens, UniProt Q08881)?
> 9.53 µM

###

For each record, write down the corresponding pIC50.
molecular target: AKT (Homo sapiens, UniProt Q9Y243); construct: Kinases are expressed as either kinase domains or full length constructs; made in house; assay: Kinase inhibition assay (33P transfer), AKT; format: biochemical; conditions: Table 2, kinase inhibition class; read-out: AKT3-1
Sequence (Q9Y243 whole entry, the tested form may be a part): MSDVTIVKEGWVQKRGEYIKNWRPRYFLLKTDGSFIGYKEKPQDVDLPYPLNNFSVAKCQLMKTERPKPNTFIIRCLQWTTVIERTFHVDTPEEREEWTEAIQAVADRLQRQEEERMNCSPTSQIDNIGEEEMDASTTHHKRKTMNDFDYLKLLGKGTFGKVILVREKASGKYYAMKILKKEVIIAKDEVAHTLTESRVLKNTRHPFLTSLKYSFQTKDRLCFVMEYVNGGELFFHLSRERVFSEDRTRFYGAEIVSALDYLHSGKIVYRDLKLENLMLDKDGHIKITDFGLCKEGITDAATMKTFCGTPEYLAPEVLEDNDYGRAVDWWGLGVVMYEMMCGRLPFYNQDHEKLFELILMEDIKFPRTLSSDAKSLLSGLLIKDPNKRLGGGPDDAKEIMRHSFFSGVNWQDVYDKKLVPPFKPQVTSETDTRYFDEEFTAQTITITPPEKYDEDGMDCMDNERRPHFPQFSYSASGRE
pIC50: −log10 of the molar value.

Fill in the blank: the reported pIC50 of `CC(=O)NS(=O)(=O)c1ccc(Nc2ncnc(-n3c(N)nc4ccccc43)n2)cc1` is ____.
< 4.97

Endpoint output: pIC50 of `COc1cc(Nc2ncnc(Nc3ccc4[nH]ccc4c3)n2)cc(OC)c1OC` . Value?
4.94 to 5.05

Recorded pIC50 for `Clc1ncnc(Nc2ccc(OCc3ccccc3)cc2)n1` , please?
< 4.84

# lookup: pIC50 of `COc1cc(Nc2ncnc(-n3ccc4cc(O)ccc43)n2)cc(OC)c1OC`
4.94 to 5.05

Find the recorded pIC50 belonging to `COC(=O)n1c(=O)n(-c2ncnc(Nc3cc(OC)c(OC)c(OC)c3)n2)c2ccccc21` and report it.
< 5.00

Name the recorded pIC50 for `COc1cc(Nc2ncnc(Nc3cc(C)[nH]n3)n2)cc(OC)c1OC` .
< 4.90

pIC50 for `COc1cc(Nc2ncnc(N(C)c3cccc(Cl)c3)n2)cc(OC)c1` ?
< 4.92

What does the record list as pIC50 for `COc1cc(Nc2ncnc(Nc3ccc(Cl)cc3F)n2)cc(OC)c1OC` ?
< 4.96

Request the reported pIC50 associated with `Cc1cccc(Nc2ncnc(Nc3cccc(Br)c3)n2)c1`
< 4.90

Sample `c1coc(-c2cc(Nc3ncnc(Nc4ccc(N5CCOCC5)cc4)n3)[nH]n2)c1` — what was its pIC50?
5.06 to 5.23

What does the record list as pIC50 for `Nc1nc2ccccc2n1-c1ncnc(Nc2cccc(-c3cnco3)c2)n1` ?
5.19 to 5.97

Query (compound): `COc1cc(Nc2ncnc(-n3c(NC(=O)c4ccccc4)nc4ccccc43)n2)cc(OC)c1OC` ; field requested: pIC50
< 5.04

# lookup: pIC50 of `COc1cc(Nc2ncnc(Nc3cc(-c4ccc(Cl)c(Cl)c4)n[nH]3)n2)cc(OC)c1OC`
< 5.04

I'd like to know its pIC50. The compound in question is `COc1cc(Nc2ncnc(Nc3cc(Cl)ccc3C)n2)cc(OC)c1OC`
< 4.95

Sample `COc1cc(Nc2ncnc(-n3c(Nc4ccc5cn[nH]c5c4)nc4ccccc43)n2)cc(OC)c1OC` — what was its pIC50?
< 5.05

What does the record list as pIC50 for `COc1ccc(Nc2ncnc(Nc3ccc(N(C)C)cc3)n2)cc1OC` ?
< 4.91

Param item = `Cc1ccc2c(c1)CCCN2c1ncnc(Nc2cc[nH]n2)n1` ; retrieve measured pIC50.
< 4.83

Can you look up the measured pIC50 of `COc1ccc(Nc2ncnc(NCCNC(C)=O)n2)cc1OC` for me?
< 4.87
